# credit: paper doi:10.1101/2023.10.03.560722

Below, each entry is listed alongside its reported nsp14 Inhibition % (100µM) Exp 1.
ASSAY TARGET: SARS-CoV-2 nsp14 MTase (Severe acute respiratory syndrome coronavirus 2, UniProt P0DTD1)
ASSAY DETAILS: biochemical
Assay type: biochemical
MEASUREMENT CONDITIONS: compound 100µM; replicate experiment 1
The answer is to be given in %; state only the numeric part.

COMPOUND: OCCNc1ncnc2c1ncn2[C@@H]1O[C@H](CO)[C@@H](O)[C@H]1O [NSC54251]
ASSAY TARGET: SARS-CoV-2 nsp14 MTase (Severe acute respiratory syndrome coronavirus 2, UniProt P0DTD1)
nsp14 Inhibition % (100µM) Exp 1 (%): 4
--
COMPOUND: O=C(NNCNNC(=O)c1ccncc1)c1ccncc1 [NSC39302]
ASSAY TARGET: SARS-CoV-2 nsp14 MTase (Severe acute respiratory syndrome coronavirus 2, UniProt P0DTD1)
nsp14 Inhibition % (100µM) Exp 1 (%): 7
--
COMPOUND: O=P(O)(O)OC[C@H]1O[C@@H](n2cnc3c(NCc4ccccc4)ncnc32)[C@H](O)[C@@H]1O [NSC255523]
ASSAY TARGET: SARS-CoV-2 nsp14 MTase (Severe acute respiratory syndrome coronavirus 2, UniProt P0DTD1)
nsp14 Inhibition % (100µM) Exp 1 (%): 59
--
COMPOUND: O=C(O)C(Cc1ccc(O)cc1)NC(c1ccccc1)P(=O)(O)O (centres unmarked) [NSC377438]
ASSAY TARGET: SARS-CoV-2 nsp14 MTase (Severe acute respiratory syndrome coronavirus 2, UniProt P0DTD1)
nsp14 Inhibition % (100µM) Exp 1 (%): 8

Okay, now this compound:
INPUT: For the compound shown here, O=S(=O)(O)c1ccc(N=Nc2c(O)ccc3n[nH]nc23)cc1 [NSC400937] , give the reported nsp14 Inhibition % (100µM) Exp 1.
OUTPUT: 73

###

ASSAY TARGET: SARS-CoV-2 nsp14 MTase (Severe acute respiratory syndrome coronavirus 2, UniProt P0DTD1)
ASSAY DETAILS: biochemical
Assay type: biochemical
MEASUREMENT CONDITIONS: compound 100µM; replicate experiment 1
Where a SMILES comes first, the peptide text is derived from it. [ ]: non-standard residue; d: D form. The star is where a group is joined. Ac5c = NC1(C(=O)O)CCCC1; Cbz = O=C(OCc1ccccc1)*
MEASURED PARAMETER: nsp14 Inhibition % (100µM) Exp 1 (%)
The answer is to be given in %; state only the numeric part.

Recorded nsp14 Inhibition % (100µM) Exp 1, per entry:
COMPOUND: O=C(O)/C=C\C(=O)NCC1CCC(CNC(=O)/C=C\C(=O)O)CC1 (stereo not drawn) [NSC137050]
ASSAY TARGET: SARS-CoV-2 nsp14 MTase (Severe acute respiratory syndrome coronavirus 2, UniProt P0DTD1)
RESULT UNIT: %
nsp14 Inhibition % (100µM) Exp 1: 6

COMPOUND: O=C(O)CNC(=O)C1(NC(=O)CNC(=O)OCc2ccccc2)CCCC1 [NSC80136] (Cbz-Gly-[Ac5c]-Gly-OH)
ASSAY TARGET: SARS-CoV-2 nsp14 MTase (Severe acute respiratory syndrome coronavirus 2, UniProt P0DTD1)
RESULT UNIT: %
nsp14 Inhibition % (100µM) Exp 1: 13

COMPOUND: O=c1ccn(C2OC(C(O)CO)C(O)C2O)c(=O)[nH]1 (stereo not drawn) [NSC613624]
ASSAY TARGET: SARS-CoV-2 nsp14 MTase (Severe acute respiratory syndrome coronavirus 2, UniProt P0DTD1)
RESULT UNIT: %
nsp14 Inhibition % (100µM) Exp 1: 4

COMPOUND: O=C1C=C(O)C(=C/C=C/C=C/c2c(O)cc(O)cc2O)C(O)=C1 [NSC77131]
ASSAY TARGET: SARS-CoV-2 nsp14 MTase (Severe acute respiratory syndrome coronavirus 2, UniProt P0DTD1)
RESULT UNIT: %
nsp14 Inhibition % (100µM) Exp 1: 99

INPUT: For the compound shown here, O=C(O)CCC(=O)NCC1CCCC(CNC(=O)CCC(=O)O)C1 (stereo not drawn) [NSC317609] , give the reported nsp14 Inhibition % (100µM) Exp 1.
OUTPUT: 7

INPUT: For the compound shown here, O=C(CCCCn1ccc(=O)[nH]c1=O)Nc1ccc(C(=O)O)c(O)c1 [NSC92432] , give the reported nsp14 Inhibition % (100µM) Exp 1.
OUTPUT: 6

INPUT: For the compound shown here, Nc1nc2nn(-c3ccc(C(=O)NC(CCC(=O)O)C(=O)O)cc3)nc2c(=O)[nH]1 (stereo not drawn) [NSC44037] , give the reported nsp14 Inhibition % (100µM) Exp 1.
OUTPUT: 15

INPUT: For the compound shown here, NC(CCCNc1nc(O)c(-c2ccccc2)c(=O)[nH]1)C(=O)O (stereo not drawn) [NSC132916] , give the reported nsp14 Inhibition % (100µM) Exp 1.
OUTPUT: −1

INPUT: For the compound shown here, O=C(O)c1cc(=O)n(CCCCCCn2c(=O)cc(C(=O)O)[nH]c2=O)c(=O)[nH]1 [NSC232469] , give the reported nsp14 Inhibition % (100µM) Exp 1.
OUTPUT: 7
